Target: human TLR7 (Homo sapiens, UniProt Q9NYK1)
Sequence (Q9NYK1 27-1049): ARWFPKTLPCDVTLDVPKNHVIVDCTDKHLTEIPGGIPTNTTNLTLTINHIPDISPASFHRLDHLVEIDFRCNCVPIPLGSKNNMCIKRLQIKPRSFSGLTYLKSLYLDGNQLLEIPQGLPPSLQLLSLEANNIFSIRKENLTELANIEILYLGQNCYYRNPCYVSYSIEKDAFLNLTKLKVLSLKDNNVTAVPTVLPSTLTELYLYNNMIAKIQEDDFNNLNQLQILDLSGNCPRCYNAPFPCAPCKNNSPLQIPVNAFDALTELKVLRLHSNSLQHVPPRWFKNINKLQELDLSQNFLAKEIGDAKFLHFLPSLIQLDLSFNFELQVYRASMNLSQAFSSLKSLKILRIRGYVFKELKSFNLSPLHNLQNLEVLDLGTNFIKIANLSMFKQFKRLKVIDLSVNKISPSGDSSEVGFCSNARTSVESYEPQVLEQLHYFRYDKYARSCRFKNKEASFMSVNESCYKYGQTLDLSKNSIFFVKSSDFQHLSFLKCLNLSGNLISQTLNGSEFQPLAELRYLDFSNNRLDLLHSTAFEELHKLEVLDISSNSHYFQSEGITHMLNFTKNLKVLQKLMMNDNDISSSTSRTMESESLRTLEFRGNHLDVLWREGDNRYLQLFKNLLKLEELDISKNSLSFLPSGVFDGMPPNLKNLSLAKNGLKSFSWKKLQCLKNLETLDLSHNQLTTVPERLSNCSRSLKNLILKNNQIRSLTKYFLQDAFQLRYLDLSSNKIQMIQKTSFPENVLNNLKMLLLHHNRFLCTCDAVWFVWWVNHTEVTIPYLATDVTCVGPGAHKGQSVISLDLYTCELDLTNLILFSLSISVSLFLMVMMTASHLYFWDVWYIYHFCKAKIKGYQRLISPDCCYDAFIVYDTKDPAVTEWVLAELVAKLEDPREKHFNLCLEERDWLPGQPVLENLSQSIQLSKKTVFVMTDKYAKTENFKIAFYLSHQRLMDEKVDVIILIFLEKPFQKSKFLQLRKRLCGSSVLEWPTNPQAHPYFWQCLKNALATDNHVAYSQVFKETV
Assay: Human TLR7 agonist activity assay (HEK-Blue TLR7 SEAP reporter)
Conditions: HEK-Blue TLR7 cells, 18 h treatment, average where assay performed multiple times, read-out: hTLR7 Agonism EC50
Method: This procedure describes a method for assaying human TLR7 (hTLR7) agonist activity of the compounds disclosed in this specification. HEK-Blue™ TLR7 cells were added to each well of a 384-well tissue-culture plate (15,000 cells per well) and incubated 16-18 h at 37° C., 5% CO2. […] After 18 h treatment ten microliters of freshly-prepared Quanti-Blue™ reagent (Invivogen) was added to each well, incubated for 30 min (37° C., 5% CO2) and SEAP levels measured using an Envision plate reader (OD=620 nm). […]
Some compounds, each annotated with its measured EC50.
measurement_type: EC50

>  <compound>
CCCCNc1nc(N)nc2cnn(Cc3cc(F)c(N4CCN(C(=O)CNCCS(C)(=O)=O)CC4)cc3OC)c12

>  <endpoint_result>
0.32 µM

$$$$
>  <compound>
COc1cc(C2CCN(CCN(C)C)CC2)cnc1Cn1ncc2nc(N)nc(NCc3cc(C)on3)c21

>  <endpoint_result>
0.101 µM

$$$$
>  <compound>
COc1cc(C2CCN(CCO)CC2)cnc1Cn1ncc2nc(N)nc(NCc3cc(C)on3)c21

>  <endpoint_result>
0.077 µM

$$$$
>  <compound>
CCC[C@@H](CCO)Nc1nc(N)nc2cnn(Cc3ncc(C4CCN(CCS(C)(=O)=O)CC4)cc3OC)c12

>  <endpoint_result>
0.0749 µM

$$$$
>  <compound>
CCCCNc1nc(N)nc2cnn(Cc3ncc(C4CCN(C5CCOCC5)CC4)cc3OC)c12

>  <endpoint_result>
0.034 µM

$$$$
>  <compound>
CCC[C@@H](CCO)Nc1nc(N)nc2cnn(Cc3ncc(C4CCCN4)cc3OC)c12 (stereo partly drawn)

>  <endpoint_result>
0.279 µM

$$$$
>  <compound>
CCCCNc1nc(N)nc2c(C3CC3)nn(Cc3ncc(C4CCN(C)CC4)cc3OC)c12

>  <endpoint_result>
0.383 µM

$$$$
>  <compound>
CCC[C@@H](CCO)Nc1nc(N)nc2cnn(Cc3ncc(C4CCN(C(=O)CN5CCOCC5)CC4)cc3OC)c12

>  <endpoint_result>
0.168 µM

$$$$
>  <compound>
CCCCNc1nc(N)nc2c(C)nn(Cc3ncc(C4CCN(C)CC4)cc3OC)c12

>  <endpoint_result>
0.491 µM

$$$$
>  <compound>
CCC[C@@H](CCO)Nc1nc(N)nc2cnn(Cc3ncc(C4CCN(C5CCOC5)CC4)cc3OC)c12 (single isomer, unassigned) [Compound 212]

>  <endpoint_result>
0.0065 µM

$$$$
>  <compound>
CCCCNc1nc(N)nc2cnn(Cc3ncc(C4CCN(C(=O)CN5C[C@@H]6C[C@H]5CN6)CC4)cc3OC)c12

>  <endpoint_result>
0.716 µM

$$$$
>  <compound>
COc1cc(C2CCN(C(C)C)CC2)cnc1Cn1ncc2nc(N)nc(NCC3CC4(CC4)C3)c21

>  <endpoint_result>
0.0409 µM

$$$$
>  <compound>
CCC[C@@H](CCO)Nc1nc(N)nc2cnn(Cc3ccc(C4CN(C(=O)CCN(C)C)CCN4)cc3OC)c12 (stereo partly drawn)

>  <endpoint_result>
0.496 µM

$$$$
>  <compound>
CCC[C@@H](CCO)Nc1nc(N)nc2cnn(Cc3ncc(C4CCN(C5CCOC5)CC4)cc3OC)c12 (stereo partly drawn) [Compound 210]

>  <endpoint_result>
0.00905 µM

$$$$
>  <compound>
CCCCNc1nc(N)nc2cnn(Cc3ncc(C4CCN(C5CCC5)CC4)cc3OC)c12

>  <endpoint_result>
0.0519 µM

$$$$
